Target: T1, human VEGF165 (human, UniProt P15692-4 27-191)
T1 construct: Bought recombinant protein; Coated on plates (ELISA), amine-coupled to a CM5 chip (SPR) or added to HUVE cells at 10 ng/mL; also called hVEGF165; vascular endothelial growth factor
T1 sequence (P15692 other isoform, or with tags, fused parts or gaps limits assumed): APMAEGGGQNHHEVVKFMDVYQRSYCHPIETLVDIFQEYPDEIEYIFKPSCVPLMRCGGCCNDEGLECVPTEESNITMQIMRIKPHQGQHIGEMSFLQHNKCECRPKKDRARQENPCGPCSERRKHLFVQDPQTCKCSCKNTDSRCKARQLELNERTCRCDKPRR
Assay: SPR (BIAcore 3000), 6000 RU VEGF on CM5 chip, TNF reference lane, peptide injected; two state reaction model with conformation change
assayEndpoint: pKd
Answers are plain numbers, as −log10 of the molar value.

Query: Item under review: ACNLWPHFWCGGG (Probably cyclised by a Cys2-Cys10 disulfide, since it comes from the C7C constrained library. The patent does not say this for the synthetic peptide., Synthetic peptide from the phage panning) [CK37283] . Reported pKd?
Result: 5.31
